# MEASURED TARGET: mu-opioid receptor (MOR) (Rattus norvegicus)
# Construct: Rat cortices were homogenized using 50 mM Tris, pH 7.4, and centrifuged at 16,500 rpm for 10 min; from tissue; host or cells: rat cortex membranes
# Sequence (P33535 whole entry): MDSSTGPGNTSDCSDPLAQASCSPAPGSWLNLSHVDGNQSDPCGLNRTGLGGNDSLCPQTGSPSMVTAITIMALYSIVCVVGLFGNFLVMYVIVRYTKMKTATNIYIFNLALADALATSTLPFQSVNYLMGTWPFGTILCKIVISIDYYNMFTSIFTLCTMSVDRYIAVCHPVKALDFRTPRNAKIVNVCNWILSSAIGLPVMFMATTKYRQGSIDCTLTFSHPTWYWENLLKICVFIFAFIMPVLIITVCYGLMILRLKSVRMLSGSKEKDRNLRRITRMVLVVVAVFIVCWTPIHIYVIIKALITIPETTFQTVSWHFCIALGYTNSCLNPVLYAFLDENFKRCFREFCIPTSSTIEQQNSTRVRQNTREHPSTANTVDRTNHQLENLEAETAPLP
# TEST PROTOCOL: MOR radioligand competition binding assay ([3H]-DAMGO)
# MEASUREMENT SETUP: Mu screening results, experiment 2; unit inferred; read-out: Ki (Exp 2)
OBSERVATION TYPE: Ki (nM)
Report only the number, with the unit nM understood.

Look over these answered cases.
| MOLECULE | Ki (nM) |
| --- | --- |
| Cc1cc(O)cc(C)c1C[C@@H](CN1C(=N)NC[C@@H]1Cc1ccc(O)cc1)N1C[C@H](Cc2ccccc2)NC1=N [1968-29] | 114 |
| Cc1cc(O)cc(C)c1C[C@H]1CN([C@@H](Cc2ccccc2)CN2C(=N)NC[C@@H]2Cc2c(C)cc(O)cc2C)C(=N)N1 [1968-52] | 102 |
| CC(C)C[C@H]1CN([C@@H](Cc2ccc(O)cc2)CN2C(=N)NC[C@@H]2Cc2ccc(O)cc2)C(=N)N1 [1968-23] | 2270 |
| C[C@H]1CNC(=N)N1C[C@H](Cc1ccccc1)N1C[C@H](Cc2ccc(O)cc2)NC1=N [1968-34] | 1070 |
| CC(C)C[C@H]1CN([C@@H](Cc2ccccc2)CN2C(=N)NC[C@@H]2Cc2ccccc2)C(=N)N1 [1968-3] | 2630 |

Quick one: Ki for Cc1cc(O)cc(C)c1C[C@@H](CN1C(=N)NC[C@@H]1Cc1ccccc1)N1C[C@H](CC(C)C)NC1=N [1968-15] ? 260

Please answer likewise for Cc1cc(O)cc(C)c1C[C@H]1CN([C@@H](CC(C)C)CN2C(=N)NC[C@@H]2Cc2ccc(O)cc2)C(=N)N1 [1968-28] 119

Recorded values, source paper PMC9455983.
